Data origin, for the record: ChEMBL document CHEMBL1157665

# Test system: Talaromyces funiculosus
# PROTOCOL_TEXT: Antifungal activity against Penicillium funiculosum ATCC 36839 after 72 hrs by serial dilution method
# Type: functional
# EXPERIMENTAL_SETUP: ATCC 36839, 72 h
OUTCOME_MEASURE: MIC (µM)
Could you give me the number in µM? Just the number is fine.

Data request: Give the measured MIC of c1ccc(-c2ccc(C(c3ccccc3)n3ccnc3)cc2)cc1 (centres undefined) [BIFONAZOLE] .
Data returned: 640

Data request: Give the measured MIC of O=C1N/C(=N/c2nc(C34CC5CC(CC(C5)C3)C4)cs2)S/C1=C\c1cccc([N+](=O)[O-])c1 .
Data returned: 10.8

Data request: Give the measured MIC of O=C1N/C(=N/c2nc(C34CC5CC(CC(C5)C3)C4)cs2)S/C1=C\c1ccc(Cl)cc1 .
Data returned: 11

Data request: Give the measured MIC of O=C1N/C(=N/c2nc(C34CC5CC(CC(C5)C3)C4)cs2)S/C1=C\c1cccc(Cl)c1 .
Data returned: 21.9

====

# Tested on: Aspergillus versicolor
# PROTOCOL_TEXT: Antifungal activity against Aspergillus versicolor ATCC 11730 after 72 hrs by serial dilution method
# Type: functional
# EXPERIMENTAL_SETUP: ATCC 11730, 72 h
Answer each item with its documented MIC.
Could you give me the number in µM? Just the number is fine.

Data request: Give the measured MIC of c1ccc(-c2ccc(C(c3ccccc3)n3ccnc3)cc2)cc1 (centres undefined) [BIFONAZOLE] .
Data returned: 320

Data request: Give the measured MIC of COc1ccc(/C=C2\S/C(=N\c3nc(C45CC6CC(CC(C6)C4)C5)cs3)NC2=O)cc1 .
Data returned: 17.3

Data request: Give the measured MIC of O=C1N/C(=N/c2nc(C34CC5CC(CC(C5)C3)C4)cs2)S/C1=C\c1ccc(O)cc1 .
Data returned: 17.2

Data request: Give the measured MIC of CC(=O)N1CCN(c2ccc(OCC3COC(Cn4ccnc4)(c4ccc(Cl)cc4Cl)O3)cc2)CC1 (centres undefined) [KETOCONAZOLE] .
Data returned: 380

Data request: Give the measured MIC of COc1cc(/C=C2\S/C(=N\c3nc(C45CC6CC(CC(C6)C4)C5)cs3)NC2=O)cc(OC)c1O .
Data returned: 15.7

Data request: Give the measured MIC of O=C1N/C(=N/c2nc(C34CC5CC(CC(C5)C3)C4)cs2)S/C1=C\c1ccccc1Cl .
Data returned: 16.4

Data request: Give the measured MIC of O=C1N/C(=N/c2nc(C34CC5CC(CC(C5)C3)C4)cs2)S/C1=C\c1ccccc1[N+](=O)[O-] .
Data returned: 10.8

Data request: Give the measured MIC of O=C1N/C(=N/c2nc(C34CC5CC(CC(C5)C3)C4)cs2)S/C1=C\c1cccc([N+](=O)[O-])c1 .
Data returned: 16.1

Data request: Give the measured MIC of O=C1CS/C(=N/c2nc(C34CC5CC(CC(C5)C3)C4)cs2)N1 .
Data returned: 23.8

====

# System: Aspergillus versicolor
# PROTOCOL_TEXT: Antifungal activity against Aspergillus versicolor ATCC 11730 after 72 hrs by serial dilution method
# Format: functional
# EXPERIMENTAL_SETUP: ATCC 11730, 72 h
OUTCOME_MEASURE: MIC (µM)
Could you give me the number in µM? Just the number is fine.

Data request: Give the measured MIC of COc1cc(/C=C2\S/C(=N\c3nc(C45CC6CC(CC(C6)C4)C5)cs3)NC2=O)ccc1O .
Data returned: 16.4

Data request: Give the measured MIC of O=C1N/C(=N/c2nc(C34CC5CC(CC(C5)C3)C4)cs2)S/C1=C\c1ccc([N+](=O)[O-])cc1 .
Data returned: 16.1

Data request: Give the measured MIC of O=C1N/C(=N/c2nc(C34CC5CC(CC(C5)C3)C4)cs2)S/C1=C\c1ccc(Cl)cc1 .
Data returned: 16.4

Data request: Give the measured MIC of O=C1N/C(=N/c2nc(C34CC5CC(CC(C5)C3)C4)cs2)S/C1=C\c1cccc(Cl)c1 .
Data returned: 11

====

Answer each item with its documented MFC.
# Tested on: Aspergillus versicolor
# PROTOCOL_TEXT: Antifungal activity against Aspergillus versicolor ATCC 11730 after 72 hrs by serial sub-cultivation method
# Type: functional
# EXPERIMENTAL_SETUP: ATCC 11730, 72 h
Could you give me the number in µM? Just the number is fine.

Data request: Query for Aspergillus versicolor: what MFC does the record show for COc1cc(/C=C2\S/C(=N\c3nc(C45CC6CC(CC(C6)C4)C5)cs3)NC2=O)cc(OC)c1O ?
Data returned: 20.9

Data request: Query for Aspergillus versicolor: what MFC does the record show for O=C1N/C(=N/c2nc(C34CC5CC(CC(C5)C3)C4)cs2)S/C1=C\c1ccccc1[N+](=O)[O-] ?
Data returned: 16.1

Data request: Query for Aspergillus versicolor: what MFC does the record show for O=C1CS/C(=N/c2nc(C34CC5CC(CC(C5)C3)C4)cs2)N1 ?
Data returned: 33.5

Data request: Query for Aspergillus versicolor: what MFC does the record show for COc1ccc(/C=C2\S/C(=N\c3nc(C45CC6CC(CC(C6)C4)C5)cs3)NC2=O)cc1 ?
Data returned: 23.1

Data request: Query for Aspergillus versicolor: what MFC does the record show for O=C1N/C(=N/c2nc(C34CC5CC(CC(C5)C3)C4)cs2)S/C1=C\c1ccc(O)cc1 ?
Data returned: 22.9

====

Answer each item with its documented MIC.
# Tested on: Bacillus cereus
# PROTOCOL_TEXT: Antibacterial activity against Bacillus cereus clinical isolate after 24 hrs
# Format: functional

Data request: Give the measured MIC of O=C1N/C(=N/c2nc(C34CC5CC(CC(C5)C3)C4)cs2)S/C1=C\c1ccccc1[N+](=O)[O-] .
Data returned: 10.8 µM

Data request: Give the measured MIC of O=C1N/C(=N/c2nc(C34CC5CC(CC(C5)C3)C4)cs2)S/C1=C\c1ccc(O)cc1 .
Data returned: 17.2 µM

Data request: Give the measured MIC of O=C1N/C(=N/c2nc(C34CC5CC(CC(C5)C3)C4)cs2)S/C1=C\c1ccc([N+](=O)[O-])cc1 .
Data returned: 21.5 µM

Data request: Give the measured MIC of O=C1CS/C(=N/c2nc(C34CC5CC(CC(C5)C3)C4)cs2)N1 .
Data returned: 17.9 µM

Data request: Give the measured MIC of O=C1N/C(=N/c2nc(C34CC5CC(CC(C5)C3)C4)cs2)S/C1=C\c1ccccc1Cl .
Data returned: 21.9 µM

====

# Test system: Pseudomonas aeruginosa
# PROTOCOL_TEXT: Antibacterial activity against Pseudomonas aeruginosa ATCC 27853 after 72 hrs by serial sub-cultivation method
# Assay type: functional
# EXPERIMENTAL_SETUP: ATCC 27853, 72 h
Answer each item with its documented MBC.
Could you give me the number in µM? Just the number is fine.

Data request: Query for Pseudomonas aeruginosa: what MBC does the record show for O=C1CS/C(=N/c2nc(C34CC5CC(CC(C5)C3)C4)cs2)N1 ?
Data returned: 47.6

Data request: Query for Pseudomonas aeruginosa: what MBC does the record show for O=C1N/C(=N/c2nc(C34CC5CC(CC(C5)C3)C4)cs2)S/C1=C\c1cccc(Cl)c1 ?
Data returned: 43.8

Data request: Query for Pseudomonas aeruginosa: what MBC does the record show for COc1cc(/C=C2\S/C(=N\c3nc(C45CC6CC(CC(C6)C4)C5)cs3)NC2=O)cc(OC)c1O ?
Data returned: 41.8

Data request: Query for Pseudomonas aeruginosa: what MBC does the record show for O=C1N/C(=N/c2nc(C34CC5CC(CC(C5)C3)C4)cs2)S/C1=C\c1ccc([N+](=O)[O-])cc1 ?
Data returned: 43

Data request: Query for Pseudomonas aeruginosa: what MBC does the record show for CN[C@@H]1[C@H](O[C@H]2[C@H](O[C@H]3[C@H](O)[C@@H](O)[C@H](N=C(N)N)[C@@H](O)[C@@H]3N=C(N)N)O[C@@H](C)[C@]2(O)C=O)O[C@@H](CO)[C@H](O)[C@H]1O ?
Data returned: 344

Data request: Query for Pseudomonas aeruginosa: what MBC does the record show for O=C1N/C(=N/c2nc(C34CC5CC(CC(C5)C3)C4)cs2)S/C1=C\c1ccccc1[N+](=O)[O-] ?
Data returned: 43

Data request: Query for Pseudomonas aeruginosa: what MBC does the record show for COc1cc(/C=C2\S/C(=N\c3nc(C45CC6CC(CC(C6)C4)C5)cs3)NC2=O)ccc1O ?
Data returned: 43.8

Data request: Query for Pseudomonas aeruginosa: what MBC does the record show for O=C1N/C(=N/c2nc(C34CC5CC(CC(C5)C3)C4)cs2)S/C1=C\c1ccc(Cl)cc1 ?
Data returned: 43.8

Data request: Query for Pseudomonas aeruginosa: what MBC does the record show for O=C1N/C(=N/c2nc(C34CC5CC(CC(C5)C3)C4)cs2)S/C1=C\c1ccccc1Cl ?
Data returned: 43.8
